Provide the recorded TGI for the entries that follow.
test system: NCI-H460 lung; test: NCI tumour cell line growth inhibition, 48 h

- Molecule: "Cc1cccc2c1C(=O)/C(=C/c1ccccc1C(=O)O)C2"
  TGI: "> 100 µM"
- Molecule: "CC(=O)[O-].CC(=O)[O-].CC(=O)[O-].CC(=O)[O-].CO.CO.CO.[Rh+2].[Rh+2].c1ccc(-c2ccccn2)nc1"
  TGI: "> 100 µM"
- Molecule: "CCCN(CCC)c1c([N+](=O)[O-])cc(C(N)=O)cc1[N+](=O)[O-]"
  TGI: "> 100 µM"
- Molecule: "CCOc1c(Cc2ccccc2)c(=O)n2c3ccccc3n3c(=O)n(C)c(=O)c1c23"
  TGI: "> 100 µM"
- Molecule: "COc1cccc(C2N3CCCCC3[C@@H]3c4[nH]c5ccccc5c4CCN23)c1OC (some centres undefined)"
  TGI: "36.3 µM"

Each molecule below has a recorded value; state its TGI.
1. Nc1nc(Cl)cc(NCC2CC(O)(CO)C2)n1 (centres undefined)
2. CCN(CC)C(=O)c1ccc(C)c(N=NN(C)C)c1
3. C/C(=C\c1ccccc1)n1c(=O)cc(C)n1C
4. Cc1cc(C)c(N)c(CO)c1
5. C(=N\Nc1nnc(-c2nnc(N/N=C/c3ccccc3)o2)o1)/c1ccccc1
6. O=C1NC(=Nc2ccccc2Cl)SC1C(=O)Nc1ccc([N+](=O)[O-])cc1[N+](=O)[O-] (centres undefined)
7. N#Cc1nc(-c2ccccn2)c(-c2ccccn2)nc1C#N

["> 100 µM", "> 100 µM", "> 100 µM", "> 100 µM", "> 10 µM", "> 100 µM", "> 35.1 µM"]

Each molecule below has a recorded value; state its TGI.
1. CC(C)C(NCc1c2ccccc2nc2ccccc12)C(=O)O (centres undefined)
2. Clc1ccc2c(NCCNc3nc(Cl)nc4ccccc34)ccnc2c1
3. CN1CCN(Cc2ccc(NC(=O)c3cncc(C#Cc4cncc5[nH]ncc45)c3)cc2C(F)(F)F)CC1
4. COc1cc(OC)cc(-c2nc3ccccc3c(=O)[nH]2)c1
5. COc1ccc(-c2nc3ncccn3c2-c2ccc(S(C)(=O)=O)cc2)cc1
6. COc1cc(C2CC(c3cc(Cl)c(C)cc3O)=NN2c2ccc(S(N)(=O)=O)cc2)cc(OC)c1OC (centres undefined)

> 100 µM
1.83 µM
5.6 µM
> 100 µM
> 100 µM
3.87 µM

Tell me TGI reported for O=C1CSC(c2cc3cc(Br)ccc3nc2Cl)N1c1ccc(F)c(Cl)c1 (centres undefined)
> 50 µM

* * *

Provide the recorded TGI for the entries that follow.
test system: NCI/ADR-RES ovarian; assay: NCI tumour cell line growth inhibition, 48 h

Reference set (5 entries):
- Compound: "O=C(O)CCC(NC(=O)/C(=C/c1ccccc1)NC(=O)c1ccccc1)C(=O)O (centres undefined)"
  TGI: "> 100 µM"
- Compound: "CSC(=N/N=C(\\C)c1ccc(S(=O)(=O)N(C)c2ccccc2)cc1)SC"
  TGI: "> 100 µM"
- Compound: "Oc1cccc(-c2cn3cc(Cl)ccc3n2)c1"
  TGI: "> 100 µM"
- Compound: "CN1CCN(Cc2ccc(NC(=O)c3cncc(C#Cc4cncc5[nH]ncc45)c3)cc2C(F)(F)F)CC1"
  TGI: "11.3 µM"
- Compound: "COc1cc(C)c(S(=O)(=O)N(CCCN)OCCCN)c(C)c1C"
  TGI: "> 100 µM"

Each compound below has a recorded value; state its TGI.
1. CC1=NNC(N)=N/C1=C\C(Sc1ccc(Cl)cc1)c1ccc(Cl)cc1Cl (centres undefined)
2. CC1=CCC(=O)[C@]2(C)C(CC(=O)O)[C@]3(C)C4=C(C)C(c5ccoc5)C[C@@H]4O[C@@H]3[C@H](O)[C@@H]12 (some centres undefined)
3. NS(=O)(=O)c1ccc(NS(=O)(=O)c2ccc(NC(=O)N(c3ccccc3)c3ccccc3)cc2)cc1
4. O=C(Nc1ccccc1C(=O)O)C(=Cc1ccccc1O)NC(=O)c1ccccc1

39 µM
> 100 µM
> 100 µM
> 100 µM
